target: Endothelial PAS domain-containing protein 1 (Homo sapiens); assay: HIF-2a and HIF-1a reporter inhibition panel, dose response, selectivity assay for HIF-2a inhibitor project, cell-based, luminescence (AID 651581); settings: HIF-2a, mean of runs
Active and inactive are the calls of the source. The rule behind the calls is not given here.
Please reply with one of these outcomes: T (active), F (inactive)

Query string: Assay result, entry CC(=O)N/N=C\c1cccc(OC/C=C/c2ccccc2)c1 — outcome?
Result string: T

Query string: Kindly provide the recorded test outcome for the following molecule: COc1ccc2nc(-c3ccc(N)cc3)[nH]c2c1
Result string: T

Query string: # outcome recorded in this test, key = O=C(Nc1sc2c(c1C(=O)O)CCC2)c1ccccc1Cl
Result string: F

Then there is this molecule:
Query string: Returns: the outcome recorded for Cc1nnnn1/C(=C\c1ccccc1)C(=O)OCC(=O)Nc1cccc(S(=O)(=O)N(C)C)c1 in this assay.
Result string: T
